# measurement target: SpNbp2
# assay details: SPOT peptide array binding signal intensity (averaged, normalized) (arbitrary units (background-subtracted, floor 0; scale differs between SH3 domains)); higher = stronger binding of the SH3 domain to the peptide
Form field: SPOT peptide array binding signal intensity (one value per entry).
quantity kind: SPOT peptide array binding signal intensity

binder | inequality sign | value reported
RAPPPVPKKPSSRIA | = | 48.5
ANNQGPPNLPARDKS | ≤ | 0
LSKRLPLRFPEHTSS | = | 32
EAEEAAPQLPSRSSA | ≤ | 0
NNNKMRPHLPPLSSG | = | 460
GDHPKGPPPPPPPDE | ≤ | 0
GERSRPLVISILSSA | = | 146
RRRDFGAPANKRPRR | = | 42
RRRRRPHRIERPLSN | = | 418
EREKALPPIPFTTTL | ≤ | 0
KMSRSPPRPPSLKII | = | 146
NILKRRPLKLEAPSK | = | 58
PLRRTVMSLPGNHDI | = | 392
EEEEEHPPLPARRKS | = | 3.5
TTNRGPPPLPPRANV | ≤ | 0

Cited source: the supplement of paper PMC4466140
